- system_name: T1, 4H3858-bH
- T1 chain: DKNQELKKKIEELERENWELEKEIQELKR
- assay_info: two-hybrid library CCNG1;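 further: natural log of median RNA to DNA barcode read ratio; higher means stronger binding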
readout_type: interaction score

                                     binder       readout_type  result
0  DKNQELKKENEELKRKIWELKKEIQELER [4H3817-bH]  interaction score  -0.973

The binder listed as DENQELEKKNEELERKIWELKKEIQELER [4H1449-bH] has a reported interaction score of -0.658

The binder listed as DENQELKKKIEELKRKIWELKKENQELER [4H1899-bH] has a reported interaction score of -0.0187

The binder listed as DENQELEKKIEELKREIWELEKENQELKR [4H1348-bH] has a reported interaction score of 0.0862

The binder listed as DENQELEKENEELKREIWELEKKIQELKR [4H1222-bH] has a reported interaction score of -0.605

The binder listed as DKNQELKKKIEELERENWELEKEIQELKR [4H3858-bH] has a reported interaction score of 1.05
